Provenance of the data: PubChem BioAssay (EPA / NIEHS)

Target: Signal transducer and activator of transcription 3 (Homo sapiens) (UniProt P40763)
Sequence (P40763 whole entry, looked up): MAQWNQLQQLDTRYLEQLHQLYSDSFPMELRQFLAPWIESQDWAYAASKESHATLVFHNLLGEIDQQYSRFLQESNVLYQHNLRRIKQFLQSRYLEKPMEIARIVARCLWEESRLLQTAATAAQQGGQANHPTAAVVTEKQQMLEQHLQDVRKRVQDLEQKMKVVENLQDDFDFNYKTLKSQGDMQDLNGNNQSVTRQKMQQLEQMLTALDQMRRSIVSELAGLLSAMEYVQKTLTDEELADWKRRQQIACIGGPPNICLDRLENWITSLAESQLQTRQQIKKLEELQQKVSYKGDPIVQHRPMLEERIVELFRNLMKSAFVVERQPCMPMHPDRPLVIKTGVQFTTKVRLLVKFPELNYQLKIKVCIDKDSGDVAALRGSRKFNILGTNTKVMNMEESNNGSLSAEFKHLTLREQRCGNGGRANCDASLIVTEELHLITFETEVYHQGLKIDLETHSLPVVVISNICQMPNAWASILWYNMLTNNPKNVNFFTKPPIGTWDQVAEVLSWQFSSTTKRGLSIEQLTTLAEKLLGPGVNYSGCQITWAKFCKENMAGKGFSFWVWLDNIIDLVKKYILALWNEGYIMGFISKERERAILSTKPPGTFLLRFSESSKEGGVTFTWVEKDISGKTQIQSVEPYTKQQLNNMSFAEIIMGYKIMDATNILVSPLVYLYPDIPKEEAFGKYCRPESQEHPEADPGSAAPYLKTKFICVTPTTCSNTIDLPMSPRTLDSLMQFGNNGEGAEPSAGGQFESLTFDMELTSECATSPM
Test: ATG_STAT3_CIS: Attagene CIS-FACTORIAL HepG2 Assay for human Signal Transducer and Activator of Transcription 3 (STAT3) (AID 2282963)
Conditions: HepG2, Attagene cis-factorial STAT3 reporter transcription; actives raise or lower the signal
Protocol: ATG_CIS is a cell-based, multiplexed-readout assay that uses HepG2, a human liver cell line, with measurements taken at 24 hours after chemical dosing in a 24-well plate.ATG_STAT3_CIS is one of 52 assay component(s) measured or calculated from the ATG_CIS assay. […] This assay endpoint, ATG_STAT3_CIS, was analyzed with bidirectional fitting relative to DMSO as the negative control and baseline of activity. […]
Calls of active or inactive are those of the source. How the source made its calls: active means hit-call score of the fitted dose curve at least 0.9, where 1 is the maximum; inactive means score below 0.9.
Labels: class 1 for active, class 0 for inactive

CCCCCCCCCc1ccc(OCCO)cc1    class 1
COC(=O)c1ccc(C=O)cc1    class 0
Oc1ccc2c(c1)CCC2    class 0

###

Experiment: ATG_TGFb_CIS: Attagene CIS-FACTORIAL HepG2 Assay for human Transforming Growth Factor (TGF) (AID 2282967)
Conditions: HepG2 Attagene CIS TGFb reporter, mRNA transcription; actives raise or lower the signal
The source made the active and inactive calls. How the source made its calls: active means hit-call score of the fitted dose curve at least 0.9, where 1 is the maximum; inactive means score below 0.9.
Labels: active, inactive

C=CC(=O)OCC(F)(F)C(F)(F)C(F)(F)COC(=O)C=C    inactive
COCCC(=O)OC    inactive
O=S(=O)(O)c1ccc(Cl)cc1    inactive
FC(F)(F)C(F)(F)C(F)(F)CC1CO1 (configuration not stated)    inactive
CCc1cc(Cc2cc(CC)c(N)c(CC)c2)cc(CC)c1N    inactive
O=C(Cl)C(F)(F)C(F)(F)C(F)(F)C(F)(F)C(F)(F)C(F)(F)C(F)(F)F    inactive
OCCCc1cccnc1    inactive
c1ccc(C[P+](c2ccccc2)(c2ccccc2)c2ccccc2)cc1    inactive
Cc1ccc(S(=O)(=O)C(I)I)cc1    inactive
CCN(CC)c1ccc(C=O)c(O)c1    inactive
Oc1ccc(C2(c3ccc(O)c(C4CCCCC4)c3)CCCCC2)cc1C1CCCCC1    inactive
CC1CCCCC1    inactive
CCCCCCCCCc1ccc(OCCO)cc1    inactive
OCC(F)(F)C(F)(F)C(F)(F)CO    inactive
CCCCOC(=O)C(C)O (configuration not stated)    inactive
NC(=O)C(F)(F)C(F)(F)C(F)(F)C(F)(F)C(F)(F)C(F)(F)C(F)(F)F    inactive
O=C1OC(=O)c2ccc3c4c(ccc1c24)C(=O)OC3=O    inactive
CC1=CCC(=O)O1    inactive
CC(C)OC=O    inactive
CSc1ccc(O)cc1C    inactive
Oc1ccc2c(c1)CCC2    inactive
CCOCN(C(=O)CS(=O)(=O)O)c1c(C)cccc1CC    inactive
COC(=O)c1ccc(C=O)cc1    inactive
O=C(c1ccccc1)c1ccc(O)cc1O    inactive
C[C@]12CC[C@H]3C(=CCc4cc(O)ccc43)[C@@H]1CCC2=O    inactive
O=C(F)C1(F)C(F)(F)C(F)(F)C(F)(F)C(F)(F)C1(F)F    inactive
Cc1cccc(C)n1    inactive
O=S(=O)(Cl)C(F)(F)C(F)(F)C(F)(F)C(F)(F)C(F)(F)C(F)(F)C(F)(F)C(F)(F)F    inactive
CC(=O)C=O    inactive
N#CCCOCCC#N    inactive
OCC1CCCO1 (configuration not stated)    inactive
OCCCCC(F)(F)C(F)(F)C(F)(F)C(F)(F)F    inactive
CN(N=O)C(=O)N[C@@H]1[C@@H](O)[C@H](O)[C@@H](CO)O[C@@H]1O    inactive
CCN(CC)c1ccc(C=O)cc1    inactive
CC(=O)CCC(C)C    inactive
CC(C)(C)C(=O)C1C(=O)c2ccccc2C1=O    inactive
CC(C)OC(=O)COc1ccc(Cl)cc1Cl    inactive
CCCCCC/C=C/CCCCCCCC(=O)O    inactive
CCCCCCCCCCCC(=O)Cl    inactive
O=C1C=CC(=O)N1c1ccc(Cc2ccc(N3C(=O)C=CC3=O)cc2)cc1    active
Cc1cc(C)c(O)c(C(C)(C)C)c1    inactive
OCCCC(F)(F)C(F)(F)C(F)(F)C(F)(F)C(F)(F)C(F)(F)C(F)(F)C(F)(F)F    inactive
